System: SK-OV-3 ovarian
Protocol Description: NCI-60 one-dose screen, 48 h
Settings: 10 µM unless noted
The panel holds about 83,000 compounds, 20% with a hit somewhere; the sample as a whole holds those more often. Calls of active or inactive are those of the source. The calls were made as follows: active = growth percent below 10; inactive = the rest.
Form entry, call: pick from 1 = active, 0 = inactive

The following compounds have reported results that may help.
Mol	Answer Label
CCN(CC)CCCNc1ccc(Nc2ccc(OC)cc2)cc1	0
O=C(Nc1cccc(Oc2nnc(Cl)c3ccccc23)c1)Nc1ccc(Cl)c(C(F)(F)F)c1	1
O=C1/C(=C\c2cccnc2)SC(=S)N1CCc1ccc(O)cc1	0
Clc1cc(Cl)cc(Nc2ccc3cc(OCCCN4CCOCC4)ccc3n2)c1	0
Cc1cc(Cl)nc(NCc2cc(Nc3ccnc4cc(Cl)ccc34)ccc2F)n1	0
COc1cc(/C=C/C(=O)N2CCN(C(=O)c3cc(OC)c(OC)c(OC)c3)CC2)ccc1OCCCN1C(=O)c2cccc3cccc(c23)C1=O	0

Assay outcome for C#Cc1cccc(NC(=O)c2ccc(NC(=O)CCl)cc2)c1 : what was it?
0

Assay outcome for Cc1c(C)c2c(c(C)c1OCC(=O)O)CC[C@@](C)(CCC[C@@H](C)CCC[C@@H](C)CCCC(C)C)O2 : what was it?
0

Assay outcome for COc1ccc(Nc2nnc(SCc3ccccc3F)s2)cc1 : what was it?
0

Assay outcome for COc1cc(-c2nc(N3CCN(C)CC3)c3ccccc3n2)cc(OC)c1OC : what was it?
0

---

Tested on: M14 melanoma
Protocol Description: NCI-60 one-dose screen, 48 h (100 = growth as untreated, 0 = no growth, -100 = all killed)
Settings: 10 µM unless noted
Procedure: Growth inhibition of the M14 human tumor cell line is measured as a screen for anti-cancer activity. Cells are grown in 96 well plates and exposed to the test compound for 48 hours. Compounds are tested at a single concentration, which is 10^-5 M for most compounds. The reported endpoint is percent growth (GI% or GIPRCNT), where numbers from 0 - 100% represent growth inhibition, and numbers from -100% - 0 represent cell death. For example, a value of 40 represents 60% growth inhibition. […]
The panel holds about 83,000 compounds, 20% with a hit somewhere; the sample as a whole holds those more often.
Label 1.0 when growth is at or above 70%; otherwise label 0.0.

Mol	Experimental System	Answer Label
COc1ccc2c(c1)C(=O)/C(=C/c1cccc(OCC(=O)Nc3nc(C)c(C)s3)c1)O2	M14 melanoma	0.0
NNC(=O)c1nc(N)n(-c2ccc(S(N)(=O)=O)cc2)n1	M14 melanoma	1.0
NC[C@H](O)c1ccc(O)c(O)c1	M14 melanoma	1.0
COc1cc(/C=C/C(=O)c2ccc(Nc3nc(Nc4ccc(F)cc4)nc(Nc4ccc(Cl)cc4)n3)cc2)cc(OC)c1OC	M14 melanoma	0.0
NC1=NCc2nc3ccccc3c(=O)n2C1	M14 melanoma	1.0
N/C(=N/N=C/c1ccccc1)N/N=C\c1ccccc1	M14 melanoma	0.0
O=C(/C=C/c1c(Cl)nc2sccn12)c1ccc(F)c(F)c1	M14 melanoma	1.0

// next entry
For this compound, is measured growth 70% or higher? NC(=O)c1ccc[n+]([C@@H]2O[C@H](COP(=O)([O-])OP(=O)(O)OC[C@H]3O[C@@H](n4cnc5c(N)ncnc54)[C@H](O)[C@@H]3O)[C@@H](O)[C@H]2O)c1
1.0

---

Test system: HCC-2998 colon
Protocol Description: NCI-60 one-dose screen, 48 h
Settings: 10 µM unless noted
About 83,000 compounds went through this panel and 20% of them were active in at least one assay; those are over-represented in the sample as a whole. The source made the active and inactive calls. The calls were made as follows: active = growth percent below 10; inactive = the rest.
Form entry, call: pick from active, inactive

The following compounds have reported results that may help.
Compound	Experimental System	Answer Label
O=C1/C(=C\c2cccnc2)SC(=S)N1CCc1ccc(O)cc1	HCC-2998 colon	inactive
O=C(NCCCNc1cc(-c2cn(-c3ccccc3)nc2-c2cccc(O)c2)ccn1)c1ccccc1	HCC-2998 colon	active
COC(=O)[C@]12CC[C@@H](C)[C@H](C)[C@@H]1C1=CC[C@@H]3[C@@]4(C)C(C=O)=C[C@@](C)(CO)[C@@H]4[C@H](O)C[C@@]3(C)[C@]1(C)CC2	HCC-2998 colon	active
CC(CCc1ccc(Cl)c(Cl)c1)NCc1ccc(C(C)(C)C)cc1 (centres undefined)	HCC-2998 colon	active
Cc1ccc(C(=O)COc2cccc(/C=C3\Oc4ccccc4C3=O)c2)cc1	HCC-2998 colon	inactive
COc1cc(C(=O)/C=C/c2c(-c3ccc(F)cc3)nc3sc(C)cn23)cc(OC)c1OC	HCC-2998 colon	inactive
O=C(Nc1ccccc1)Nc1cccc(Oc2nnc(Cl)c3ccccc23)c1	HCC-2998 colon	inactive
COc1cc(C2CC(=O)Nc3c2c(C)nn3-c2nc3ccccc3[nH]2)cc2c1OCC(=O)N2 (centres undefined)	HCC-2998 colon	inactive

// next entry
Assay outcome for O=C(Nc1cccc(Cl)c1)c1cc(N=Nc2ccc([N+](=O)[O-])cc2Cl)ccc1O : what was it?
inactive

---

Tested on: SF-539 CNS
Protocol Description: NCI-60 one-dose screen, 48 h
Settings: 10 µM unless noted
About 83,000 compounds went through this panel and 20% of them were active in at least one assay; those are over-represented in the sample as a whole. Activity calls are given as the source filed them. The calls were made as follows: active = growth percent below 10; inactive = the rest.
Form entry, call: pick from active, inactive

The following compounds have reported results that may help.
Compound	Answer Label
Cc1ccc(CCC(=O)Nc2ncc(Cc3cc(Cl)ccc3Cl)s2)o1	active
NC(=S)Nc1cccc(O)c1	inactive
CC/C=C\C[C@H](O)C/C=C1/C(=O)C=C[C@@H]1C/C=C\CCCCO	inactive

Assay outcome for CC1(C)CC(=O)C2=C(C1)N(c1ccc(OC(F)(F)F)cc1)C(N)=C(C#N)C2c1ccc(Cl)cc1 (stereo not given) : what was it?
inactive

Assay outcome for OC(c1cccc(-n2ccc(C(F)(F)F)n2)c1)c1cnccc1NC1CCCCCC1 (stereo not given) : what was it?
inactive

Assay outcome for CN(C)CC1C(=O)O[C@H]2[C@H]1CC/C(COC(=O)c1cc3ccccc3[nH]1)=C\CC[C@@]1(C)O[C@@H]21 (stereo not given in full) : what was it?
active

Assay outcome for Cc1cc(=O)oc2c1ccc1oc(C#N)c(C)c12 : what was it?
inactive

---

Tested on: IGROV1 ovarian
Protocol Description: NCI-60 one-dose screen, 48 h (100 = growth as untreated, 0 = no growth, -100 = all killed)
Settings: 10 µM unless noted
Protocol: Growth inhibition of the IGROV1 human tumor cell line is measured as a screen for anti-cancer activity. Cells are grown in 96 well plates and exposed to the test compound for 48 hours. Compounds are tested at a single concentration, which is 10^-5 M for most compounds. The reported endpoint is percent growth (GI% or GIPRCNT), where numbers from 0 - 100% represent growth inhibition, and numbers from -100% - 0 represent cell death. For example, a value of 40 represents 60% growth inhibition. […]
About 83,000 compounds went through this panel and 20% of them were active in at least one assay; those are over-represented in the sample as a whole.
Quantity Measured: growth (%)
Answer in %, number only, no unit symbol.

Look over these answered cases.
Compound	growth (%)
Cc1c(C(=O)N[C@@H](Cc2ccccc2)C(=O)C(=O)NCCc2ccccc2)[nH]c2ccccc2c1=O	95.3
COc1ccc(NC(=O)CSc2nc(C)c(C(C)=O)n2-c2ccc([N+](=O)[O-])cc2)cc1	95.8
CCn1c(C)nc2cc(C(N)=O)ccc21	109
C[n+]1cccc(CC(=O)NO)c1	101
COC(=O)[C@H](CSC)N(C)C(=O)[C@@H]1CSSC[C@@H](NC(=O)c2nc3ccccc3cc2O)C(=O)NCC(=O)N1C	95.8

For the compound shown here, Nc1ccc2c(c1)c(N)nn2C(=O)Nc1ccc(Cc2ccccc2)cc1 , give the reported growth.
83.4

For the compound shown here, COc1cc2c(cc1-c1c(C)noc1C)ncc1nc(C3CCCCC3)n(C3CCC(OC(F)F)CC3)c12 (stereo not given) , give the reported growth.
50.9

For the compound shown here, N#CC1=C(/N=C/c2ccccc2)Oc2c(ccc3ccccc23)C1c1ccccc1 (stereo not given) , give the reported growth.
25.1

For the compound shown here, COc1ccc(-c2nc3c(N)c(CO)c(C)nc3o2)cc1 , give the reported growth.
86.9

For the compound shown here, COc1cc(N=Nc2ccc(N)cc2)c(OC)cc1N=Nc1ccccc1.[Cl][Zn][Cl] , give the reported growth.
47.6

---

System: HCT-15 colon
Protocol Description: NCI-60 one-dose screen, 48 h
Settings: 10 µM unless noted
This is part of a sample that, as a whole, favours compounds with a hit. Of some 83,000 tested, about 20% had one in any assay. The source made the active and inactive calls. How the source made its calls: active means growth percent below 10; inactive means the rest.
Form entry, call: pick from active, inactive

Molecule	Answer Label
COc1cc(OC)cc(C2CC(=O)Nc3c2c(C)nn3-c2nc3ccccc3[nH]2)c1 (stereo not drawn)	inactive
COc1cccc(-c2nc3sccn3c2-c2ccnc(NCCNS(=O)(=O)c3ccc(C(F)(F)F)cc3)c2)c1	inactive
O=[N+]([O-])c1ccc(-c2cc(-c3ccc(Nc4nc(Nc5ccc(Cl)cc5)nc(Nc5ccc(Cl)cc5)n4)cc3)no2)cc1	inactive
O=C1NC(=Nc2ccc(Cl)cc2)S/C1=C\c1cn(-c2ccccc2)nc1-c1ccccc1	inactive
C[C@H]1[C@H]2[C@H]3CC[C@@H]4[C@@]5(C)C/C(=C/c6ccco6)C(=O)C(C)(C)[C@@H]5CC[C@@]4(C)[C@]3(C)CC[C@]23CO[C@]1(C)[C@@H](C(=O)/C=C\c1ccco1)C3	inactive

Assay outcome for Cc1cc(C(=O)c2ccccc2)c(C)c2c1[nH]c1ccc(Cl)cc12 : what was it?
active

Assay outcome for COc1ccc(/C=C/c2c(C(=O)/C=C/c3cccs3)c(C)nc3ccccc23)cc1 : what was it?
inactive

Assay outcome for CCOC(=O)c1c2ncccc2n2c(=O)n(-c3ccccc3C)nnc12 : what was it?
inactive
